Where do these numbers come from? They come from patent US10501464B2.

- System: K. pneumoniae H 521
- Method Summary: Antibacterial activity, MIC by agar dilution (CLSI)
- Assay type: cell-based
- Test Settings: K. pneumoniae H 521; compound tested alone
Exercise: for every item that follows, state its recorded MIC.

[
  {
    "Compound": "CC(C)(O/N=C(\\C(=O)N[C@@H]1C(=O)N2C(C(=O)[O-])=C(C[n+]3ccccc3)CS[C@H]12)c1csc(N)n1)C(=O)O [Ceftazidime, reference compound]",
    "Test System": "K. pneumoniae H 521",
    "MIC": ">32 µg/mL"
  },
  {
    "Compound": "O=C(NNC(=O)[C@@H]1CC[C@@H]2CN1C(=O)N2OS(=O)(=O)O)C1C[C@H](n2ccnc2)CN1 (stereo partly shown)",
    "Test System": "K. pneumoniae H 521",
    "MIC": "8 µg/mL"
  },
  {
    "Compound": "O=C(NNC(=O)[C@@H]1CC[C@@H]2CN1C(=O)N2OS(=O)(=O)O)[C@@H]1C[C@@H](n2cccn2)CN1",
    "Test System": "K. pneumoniae H 521",
    "MIC": "8 µg/mL"
  }
]

Note: attention shifts to another entry.
Need MIC of CN1CCN([C@H]2CNC(CONC(=O)[C@@H]3CC[C@@H]4CN3C(=O)N4OS(=O)(=O)O)C2)CC1 (stereo partly shown) , thanks.
8 µg/mL
